Just for reference, the nanobody polyreactivity screen of Harvey et al. (2022) is where these values come from.

procedure_summary: yeast display, Sf9 membrane polyspecificity reagent, FACS + sequencing; frameworks hold sequencing errors
recorded_endpoint: polyreactivity (PSR sort gate)

// known answers, use as guide
INPUT: Given the sequence QVQLVESGGGLVQAGGSLRLSCAASGSISSKNAMGWYRQAPGKEREFVAVISGTGGSTYYADSVKGRLTISRDNAKNTVYLQMNSLKPEDTAVYYCAAAASSIVSYGYTWTYGYWGQGTQVTVSS , what is its reported polyreactivity (PSR sort gate)?
OUTPUT: low polyreactivity

INPUT: Same for QVQLVESGGGLVQAGGSLRLSCAASGSTFWWYAMGWYRQAPGKEREFVAAINWRGSSTYYADSVKGRFTISRDNAKNTVYLQMNSLKPEDTSVYYCNAVLRYGYAGMDYWGQGTQVTVSS
OUTPUT: high polyreactivity

INPUT: Now consider HVQLVESGGGLVQAGGSLRLSCAASGFIFQYYCMGWYRQATRKERELVAAIDSRGGSTYYADSVKGRFTISRDNAKNTVYLQMNSLNPADTAVYYCAAMGLYQGTLNHFYYWGQGTQVTVSS .
OUTPUT: low polyreactivity

INPUT: # iterate: QVQLVESGGGLVQAGGSLRLSCAASGSNFAYYTMGWYRPAPGKERELVAAITSGGSTYYADSVKGRFTISRDNAKNTVYLQMNSLKPEDTAVYYCATRHSVGRYGMDSWGQGTQVTVSS
OUTPUT: high polyreactivity

Next sequence, please.
INPUT: Look up polyreactivity (PSR sort gate) for this sequence: QVQLQQSGDGLVQAVGSLRLSCAPSGSLSGYYSMGWYREAPGKVRELVAGIDAFGSSTNYADCVIGRFTISRDKATNTVYLQMKSLKPEDTAVYYCAARPDGVRLFSYWGQGTQVTESS
OUTPUT: low polyreactivity
